Hello, the source for this data is paper PMC12102759, in case you need it.

B1: ATXN2 peptide 911-926 (Ataxin-2), 16-mer library wild type / PABPC1 PABC (PABPC1 PABC domain, residues 544-623) (parent)
chain 1: KSTLNPNAKEFNPRSF
chain 2: PLTASMLASAPPQEQKQMLGERLFPLIQAMHPTLAGKITGMLLEIDNSELLHMLESPESLRSKVDEAVAVLQAHQAKEAA

Variants of: B1
Experiment: proteomic peptide phage display deep mutational scan (ProP-PD DMS): M13 P8 16-mer library selected against immobilised GST-tagged bait for four days (rounds), NGS of the eluted pools per day and pseudo-replica
Settings: with PABPC1 PABC (PABPC1 PABC domain, residues 544-623); bait immobilised on MaxiSorp plates (10 µg), library pre-cleared on GST, 2 h binding at 4 °C, five washes; one round per day, days 1-4; value from days 2 and 3; scale: average fractional NGS count over selection days 2 and 3
Measured screen value of individual entries
Give the figure by itself; no unit, no explanation.

Consider the reported screen value for these variants:
chain 1 F16M
0.000149
chain 1 E10Q
0
chain 1 P13D
1.92e-05
chain 1 N12K
0.000122
chain 1 K9N
0.00453
chain 1 N7W
0
chain 1 S15Y
0.000151
chain 1 T3S
0

Query :: I would be grateful if you could share the reported screen value for chain 1 S15F .
Result :: 0.000136

Query :: Input chain 1 K9D
Result :: 0.000277

Query :: Input chain 1 S2V
Result :: 0.000881
